Task for the reader: assign each of the following compounds its reported AC50 cell viability.
Tested on: HCT116;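 also: HCT116 colorectal carcinoma cells screened at five concentrations per compound, luminescent viability scaled between DMSO wells and empty wells on each plate, curves fitted per compound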
Experiment: AC50 cell viability (CellTiter-Glo); higher = less potent
Test conditions: 48 h
Answers are plain numbers, in µM.

Worked cases, answers included:
{"Compound": "CN[C@H]1CCC2=CC(=C(OC)C(=C2C/3=C/C=C(OC)\\C(=O)/C=C13)OC)OC [Demecolcine]", "AC50 cell viability (µM)": 0.059}
{"Compound": "NC\\1=N\\C(=O)N(\\C=N1)[C@H]2C[C@H](O)[C@@H](CO)O2 [Decitabine]", "AC50 cell viability (µM)": 9.34}

// each compound listed below needs its AC50 cell viability
1. COc1ccc([S+](=O)([O-])Nc2cc(-c3c(O)ccc4ccccc34)c(O)c3ccccc23)cc1 [C-188-9]
2. Cc1cc(Nc2nc(N[C@@H](C)c3ccc(F)cc3)c(C#N)cc2F)n[nH]1 [AZ-960]
3. CN1CCN(Cc2ccc(Nc3ncc(Cl)/c(=N\c4ccccc4[S+](=O)([O-])N(C)C)[nH]3)cc2)CC1 [TP-0903]
4. NC(=O)c1cccc2c(NC(CN3CCC3)c3ccc(Cl)c(C(F)(F)F)c3)ncnc12 (configuration not stated) [M2698]
5. CC(C)[N]1C=C(C)C2=C1C=C(C=C2C(=O)NC\C3=C(C)\C=C(C)/NC3=O)C4=CC=C(N=C4)N5CCN(C)CC5

1: 26.3; 2: 5.9; 3: 0.027; 4: 10.5; 5: 20.9
